The reported numbers originate from patent US11174253B2.

Test system: Hep3B hepatocellular carcinoma cell line
Test: MTS cell viability assay (NCI-60 methodology), GI50/LC50, Hep3B
Type: cell-based
Settings: Homo sapiens, 48 h, Hep3B cells, 2 days incubation with compound
quantity.kind: LC50 (nM)

1. CCCOc1ccc(-c2nc(NC(=O)c3ccc([N+](=O)[O-])o3)sc2Oc2ccccc2)cc1; 9410
2. CCOc1ccc(-c2nnc(NC(=O)Cc3ccc4nc(N)sc4c3)s2)cc1; 480
3. CCCOc1ccc(-c2nc(NC(=O)c3ccc([N+](=O)[O-])s3)sc2Oc2ccc(F)cc2)cc1; 2230
4. CCOc1ccc(-c2nc(NC(=O)c3ccc([N+](=O)[O-])s3)sc2Oc2ccc(C(C)(C)C)cc2)cc1; 3860
5. CCC(CC)Oc1ccc(-c2nnc(NC(=O)Cc3ccc4nc(N)sc4c3)s2)cc1; 4340
6. CCCCOc1ccc(-c2nc(NC(=O)c3ccc([N+](=O)[O-])s3)sc2Oc2ccccc2)cc1; 2310
7. CCOc1cc(OCC)c(-c2nnc(N(C)C(=O)Cc3ccc4nc(N)sc4c3)s2)cn1; 1240
8. O=C(Nc1nc(-c2ccc(F)cc2)c(Oc2ccccc2OC(F)(F)F)s1)c1ccc([N+](=O)[O-])s1; 2170
9. CCCCOc1ccccc1-c1nnc(NC(=O)Cc2ccc3nc(N)sc3c2)s1; 630
10. CC(C)(C)c1ccc(-c2nc(NC(=O)c3ccc([N+](=O)[O-])s3)sc2-c2ccccc2)cc1; 1350
11. CCCOc1ccc(-c2nc(NC(=O)c3ccc([N+](=O)[O-])s3)sc2Oc2ccc(C(F)(F)F)cc2)cc1; 1180
12. O=C(Nc1nc(-c2ccc(Br)cc2)c(Oc2ccc(C(F)(F)F)cc2)s1)c1ccc([N+](=O)[O-])s1; 1230
13. CCOc1ccc(-c2nnc(NC(=O)Cc3ccc4nc(N)sc4c3)s2)c(OCCOC)c1; 540
14. O=C(Nc1nc(-c2ccc(Br)cc2)c(Oc2ccccc2C(F)(F)F)s1)c1ccc([N+](=O)[O-])s1; 3910
15. CCOc1ccc(-c2nc(NC(=O)c3ccc([N+](=O)[O-])s3)sc2Oc2cccc(C(F)(F)F)c2)cc1; 3960

====

Tested on: Hep3B hepatocellular carcinoma cell line
Assay: MTS cell viability assay (NCI-60 methodology), GI50/LC50, Hep3B
Assay type: cell-based
Conditions: Homo sapiens, 48 h, Hep3B cells, 2 days incubation with compound
Let's look at some molecules and their measured LC50.
quantity.kind: LC50 (nM)

1) COc1ccc(-c2sc(NC(=O)c3ccc([N+](=O)[O-])s3)nc2-c2ccc(C(C)(C)C)cc2)cc1 [Compound 6-54]; 710
2) CC(C)(C)c1ccc(-c2nc(NC(=O)c3ccc([N+](=O)[O-])s3)sc2-c2cc(F)cc(F)c2)cc1 [Compound 6-38]; 1610
3) CCCCCOc1ccc(-c2nc(NC(=O)c3ccc([N+](=O)[O-])s3)sc2Oc2ccccc2)cc1 [Compound 5-76]; 1720
4) CC(C)(C)c1ccc(-c2nc(NC(=O)c3ccc([N+](=O)[O-])s3)sc2Oc2ccc(C(F)(F)F)cc2)cc1 [Compound 5-74]; 1680
5) CCCCOc1cc(OCC)ccc1-c1nnc(NC(=O)Cc2ccc3nc(N)sc3c2)s1 [Compound 1-23]; 480
6) CCCOc1ccc(-c2nnc(NC(=O)Cc3ccc4nc(N)sc4c3)s2)cc1 [Compound 1-17]; 890
7) O=C(Nc1nc(-c2ccc(Br)cc2)c(Oc2ccc(OC(F)(F)F)cc2)s1)c1ccc([N+](=O)[O-])s1 [Compound 5-18]; 4770

====

System: Hep3B hepatocellular carcinoma cell line
Assay: MTS cell viability assay (NCI-60 methodology), GI50/LC50, Hep3B
Assay type: cell-based
Conditions: Homo sapiens, 48 h, Hep3B cells, 2 days incubation with compound
// returns false unless LC50 is strictly below 1 µM, in which case true

1. CC(C)(C)c1ccc(-c2nc(NC(=O)c3ccc([N+](=O)[O-])s3)sc2-c2ccc(F)c(F)c2)cc1; false
2. CC(C)Oc1ccccc1-c1nnc(NC(=O)Cc2ccc3nc(N)sc3c2)s1; true
3. CC(C)(C)c1ccc(-c2nc(NC(=O)c3ccc([N+](=O)[O-])s3)sc2-c2ccc(F)cc2)cc1; false
4. CCC(C)(C)c1ccc(Oc2sc(NC(=O)c3ccc([N+](=O)[O-])s3)nc2-c2ccc(C(F)(F)F)cc2)cc1; true
5. O=C(Nc1nc(-c2ccc(C(F)(F)F)cc2)c(Oc2ccccc2)s1)c1ccc([N+](=O)[O-])s1; false
6. CCCCc1ccc(-c2nc(NC(=O)c3ccc([N+](=O)[O-])s3)sc2Oc2ccccc2F)cc1; false
7. CCCCCCOc1ccc(-c2nc(NC(=O)c3ccc([N+](=O)[O-])s3)sc2Oc2ccccc2)cc1; true
8. CCCOc1ccc(-c2nc(NC(=O)c3ccc([N+](=O)[O-])s3)sc2-c2ccc(F)cc2)cc1; false
9. CCCOc1ccc(-c2nc(NC(=O)c3ccc([N+](=O)[O-])s3)sc2Oc2cccc(C(F)(F)F)c2)cc1; false
10. CCCOc1ccccc1-c1nnc(NC(=O)Cc2ccc3nc(N)sc3c2)s1; true
11. CCC(C)(C)c1ccc(-c2nc(NC(=O)c3ccc([N+](=O)[O-])s3)sc2-c2ccc(F)cc2)cc1; false
12. CCOc1ccc(-c2nnc(NC(=O)Cc3ccc4nc(N)sc4c3)s2)c(OCCN(C)C)c1; false
13. CC(C)(C)c1ccc(-c2nc(NC(=O)c3ccc([N+](=O)[O-])s3)sc2-c2ccc(Cl)cc2)cc1; true

====

System: Hep3B hepatocellular carcinoma cell line
Experiment: MTS cell viability assay (NCI-60 methodology), GI50/LC50, Hep3B
Format: cell-based
Conditions: Homo sapiens, 48 h, Hep3B cells, 2 days incubation with compound
quantity.kind: GI50 (nM)

1) CCOc1ccc(-c2nc(NC(=O)c3ccc([N+](=O)[O-])s3)sc2Oc2ccccc2)cc1; 1100
2) CCC(C)(C)c1ccc(Oc2sc(NC(=O)c3ccc([N+](=O)[O-])s3)nc2-c2ccc(F)cc2)cc1; 450
3) CC(C)(C)c1ccc(-c2nc(NC(=O)c3ccc([N+](=O)[O-])s3)sc2Oc2ccc(F)cc2)cc1; 790
4) CCOc1ccc(-c2nnc(NC(=O)Cc3ccc4nc(N)sc4c3)s2)cc1; 160

====

System: hepatocellular carcinoma cell line Hep3B
Test: Growth inhibition of Hep3B cells, 48 hr treatment, Hoechst 33342 nucleus count (GE InCell 2200)
Assay type: cell-based
Details: Homo sapiens, Table 5, ratio of number of tumor cells treated with 10 μM compound to non-treated cells
quantity.kind: viability at 10 µM (%)

1) CCOc1ccc(-c2nc(NC(=O)c3ccc([N+](=O)[O-])s3)sc2Oc2ccccc2)c(OCC)c1; 46
2) CCc1ccc(-c2nc(NC(=O)c3ccc([N+](=O)[O-])s3)sc2Oc2ccc(C(C)(C)C)cc2)cc1; 40
3) CCCOc1ccc(-c2nc(NC(=O)c3ccc([N+](=O)[O-])s3)sc2Oc2ccc(F)cc2F)cc1; 38
4) CCCCc1ccc(-c2nc(NC(=O)c3ccc([N+](=O)[O-])s3)sc2Oc2ccc(C(C)(C)CC)cc2)cc1; 56
5) O=C(Nc1nc(-c2ccc(C(F)(F)F)cc2)c(Oc2ccccc2)s1)c1ccc([N+](=O)[O-])s1; 30
6) O=C(Nc1nc(-c2ccc(Br)cc2)c(Oc2ccccc2)s1)c1ccc([N+](=O)[O-])s1; 66
7) CCCOc1ccc(-c2nc(NC(=O)c3ccc([N+](=O)[O-])s3)sc2Oc2ccc(C#N)cc2OC)cc1; 46
8) O=C(Nc1nc(-c2ccc([N+](=O)[O-])cc2)c(Oc2ccccc2)s1)c1ccc([N+](=O)[O-])s1; 38
9) O=C(Nc1nc(-c2ccc(F)cc2)c(Oc2ccccc2C(F)(F)F)s1)c1ccc([N+](=O)[O-])s1; 48
10) CCCCOc1ccc(-c2nc(NC(=O)c3ccc([N+](=O)[O-])s3)sc2Oc2ccccc2F)cc1; 43
11) CCOc1ccc(-c2nc(NC(=O)c3ccc([N+](=O)[O-])s3)sc2Oc2ccccc2)cn1; 43
12) O=C(Nc1nc(-c2ccc(Br)cc2)c(Oc2ccc(C(F)(F)F)cc2)s1)c1ccc([N+](=O)[O-])s1; 31
13) CCCCOc1ccc(-c2nc(NC(=O)c3ccc([N+](=O)[O-])s3)sc2Oc2ccccc2)cc1; 40
14) COCCOc1ccc(-c2nc(NC(=O)c3ccc([N+](=O)[O-])s3)sc2Oc2ccccc2)cc1; 59
15) CC(C)(C)c1ccc(-c2nc(NC(=O)c3ccc([N+](=O)[O-])s3)sc2Oc2ccccc2)cc1; 50

====

Tested on: Hep3B hepatocellular carcinoma cell line
Assay: MTS cell viability assay (NCI-60 methodology), GI50/LC50, Hep3B
Type: cell-based
Details: Homo sapiens, 48 h, Hep3B cells, 2 days incubation with compound
Experimental: The number of treated cells was determined by GE InCell 2200 system, and treated cells were stained with Hoechst 33342 which can reveal the remained nucleus in culture plate. The proportion of survival cells then were calculated with the ratio of treated/non-treated cells. The growth inhibition/cytotoxic effect of selected compounds were evaluated by the following protocol of NCI-60 screening platform. […]
Quick list: log10(GI50) per entry.
quantity.kind: log10(GI50) (log10 of the value in nM)

1. O=C(Nc1nc(-c2ccc(Br)cc2)c(Oc2ccc(C(F)(F)F)cc2)s1)c1ccc([N+](=O)[O-])s1; 2.80
2. CCCOc1ccc(-c2nc(NC(=O)c3ccc([N+](=O)[O-])s3)sc2Oc2ccc(Br)cc2)cc1; 2.91
3. CCOc1ccc(-c2nc(NC(=O)c3ccc([N+](=O)[O-])s3)sc2Oc2ccc(C(C)(C)C)cc2)cc1; 3.26
4. CC(C)(C)c1ccc(-c2nc(NC(=O)c3ccc([N+](=O)[O-])s3)sc2Oc2cccc(F)c2)cc1; 3.16
5. CCOc1ccc(-c2nnc(NC(=O)Cc3ccc4nc(N)sc4c3)s2)c(OCC)c1; 2.20
6. CCCCOc1cc(OCC)ccc1-c1nnc(NC(=O)Cc2ccc3nc(N)sc3c2)s1; 2.68
7. CCCCc1ccc(-c2nc(NC(=O)c3ccc([N+](=O)[O-])s3)sc2Oc2ccccc2F)cc1; 2.83
